Test: Thermodynamic solubility in simulated intestinal fluid (TS in FaSSIF)
Type: physicochemical
Conditions: thermodynamic from solid, 37° C.
Mark yes for reported solubility thermodynamic at 4 h of 100 µg/mL or greater; mark no for anything smaller.

> print(dat)
                                   molecule  qualitative.label
1  COCc1cccc(COc2nn3c(-c4cc(C)on4)nnc3cc2OC)n1                 no
2  COc1ccc(COc2nn3c(-c4cc(CO)on4)nnc3cc2OC)nc1                 no
3  COc1cc2nnc(-c3cc(C)on3)n2nc1OCc1ccc2c(n1)CCN(C(C)=O)C2                yes
4  COc1cc2nnc(-c3cc(C)on3)n2nc1OCc1ccc2c(n1)CCNC2                yes
5  COc1cc2nnc(-c3cc(C)on3)n2nc1OCc1cccc(C2CCNCC2)n1                yes
6  COc1cc2nnc(-c3cc(C)on3)n2nc1OCc1ccc2c(n1)CN(C1CCOCC1)C2                 no
7  COc1cc2nnc(-c3cc(C)on3)n2nc1OCc1ccc2c(cnn2C2CN(C)C2)n1                yes

Then this molecule:
Prompt line: Is the recorded value of solubility thermodynamic at 4 h equal to or greater than 100 µg/mL for this molecule? COc1cc2nnc(-c3cc(C)on3)n2nc1OCc1ccc(OCC2CCOC2)cn1 (centres unmarked)
Response line: no
